- Test system: DIV17
- Measurement description: qHTS profiling for inhibitors of Plasmodium falciparum proliferation (AID 504749); also: nearly all actives have a fitted effect of over 60% in size
- Cond: P. falciparum in erythrocytes, SYBR Green DNA, 72 h; series mostly up to 28.7 µM
Inconclusive results are not listed. Active and inactive are the calls of the source. Calls follow the shape of the dose curve; as a rule, active = well fitted inhibition curve with a large enough effect; inconclusive = small, poorly fitted or top-dose-only effect; inactive = flat fitted curve, though single readings scatter.
Your reply should match one of these outcome classes. t (active), f (inactive)

Examples from the recorded data:
CC[C@@H](C)C(N)C(=O)O (stereo partly drawn); f
Cc1c(C)c2c(c(C)c1O)CCC(C)(CCCC(C)CCCC(C)CCCC(C)C)O2 (stereo not drawn); f
C=C(NCc1ccccc1)c1ccccc1O; f
CO[C@H]1/C=C/O[C@@]2(C)Oc3c(C)c(O)c4c(O)c(c5c(c4c3C2=O)NC2(CCN(CC(C)C)CC2)N=5)=NC(=O)/C(C)=C\C=C\[C@H](C)[C@H](O)[C@@H](C)[C@@H](O)[C@@H](C)[C@H](OC(C)=O)[C@@H]1C; t
C/C=C\C[C@H](C)[C@H](O)[C@H]1C(=O)N[C@@H](CC)C(=O)N(C)CC(=O)N(C)[C@@H](CC(C)C)C(=O)N[C@@H](C(C)C)C(=O)N(C)[C@@H](CC(C)C)C(=O)N[C@@H](C)C(=O)N[C@@H](C)C(=O)N(C)[C@@H](CC(C)C)C(=O)N(C)[C@@H](CC(C)C)C(=O)N(C)[C@@H](C(C)C)C(=O)N1C; t
CC1(C)OC[C@@H]2O[C@@]3(C(=O)O)OC(C)(C)O[C@@H]3[C@@H]2O1; f

Req: Query: recorded result category for C[C@]12CC[C@@H]3c4ccc(O)cc4C[C@@H](CCCCCCCCCS(=O)CCCC(F)(F)C(F)(F)F)C3[C@@H]1CC[C@@H]2O (stereo partly drawn) in this test
Resp: t

Req: Query: recorded result category for CC(O)C1CCC2C3CCC4CC(O)CCC4(C)C3CCC12C (stereo not drawn) in this test
Resp: f

Req: Query: recorded result category for CC(=O)OCC(=O)[C@@]1(O)CCC2C3CCC4=CC(=O)C=CC4(C)C3C(O)C[C@]21C (stereo partly drawn) in this test
Resp: f

###

- Test system: CP194
- Measurement description: qHTS profiling for inhibitors of Plasmodium falciparum proliferation (AID 504749); also: nearly all actives have a fitted effect of over 60% in size
- Cond: P. falciparum in erythrocytes, SYBR Green DNA, 72 h; series mostly up to 28.7 µM
Results filed as inconclusive are left out. Calls of active or inactive are those of the source. Calls follow the shape of the dose curve; as a rule, active = well fitted inhibition curve with a large enough effect; inconclusive = small, poorly fitted or top-dose-only effect; inactive = flat fitted curve, though single readings scatter.
Your reply should match one of these outcome classes. yes (1) for active, no (0) for inactive

CC[C@H]1OC(=O)[C@H](C)C(=O)[C@H](C)[C@@H](OC2O[C@H](C)C[C@H](N(C)C)[C@@H]2O)[C@@](C)(OC)C[C@@H](C)C(=O)[C@@H](C)C2N(CCCCn3cnc(-c4cccnc4)c3)C(=O)O[C@@]21C (some centres undefined); no (0)
C#C[C@]1(O)CC[C@H]2[C@H]3[C@H](CC[C@@]21C)C1=C(CC(=O)CC1)C[C@@H]3C; no (0)
CC(C)CCCC(C)C1CC(=O)C2=C3CCC4CC(O)CCC4(C)C3CCC21C (centres undefined); no (0)

Req: Query: recorded result category for `O=C(O)c1ccc(N[C@@H]2OC[C@@H](O)[C@@H](O)[C@@H]2O)cc1` in this test
Resp: no (0)

Req: Query: recorded result category for COC1CC2CCC(C)[C@](O)(O2)C(=O)C(=O)N2CCCCC2C(=O)OC(C(C)CC2CCC(O)C(OC)C2)CC(=O)C(C)/C=C(/C)C(O)C(OC)C(=O)C(C)CC(C)C=CC=C/C=C\1C (some centres undefined) in this test
Resp: yes (1)

Req: Query: recorded result category for `C[C@@H]1CCN(C(=O)[C@H](CCCNC(=N)N)NS(=O)(=O)c2cccc3c2NC[C@H](C)C3)[C@@H](C(=O)O)C1` in this test
Resp: no (0)

Req: Query: recorded result category for `CCN(CC)CC(=O)Nc1c(C)cc(C)cc1C` in this test
Resp: no (0)

Req: Query: recorded result category for NCCCCC(N)C(=O)O (centres undefined) in this test
Resp: no (0)

Req: Query: recorded result category for CC(=O)N1CC(O)CC1C(=O)O (centres undefined) in this test
Resp: no (0)

These data points were gathered from PubChem BioAssay (NCATS).
